Recorded values, source patent US8952024B2.

Below, each of the compounds is paired with its reported Plant response rating, Morningglory value.
# System: morningglory (Ipomoea spp.)
# PROTOCOL_DESCRIPTION: Test A pre-/postemergence plant response
# Assay type: in vivo
# EXPERIMENTAL_CONTEXT: Preemergence, 500 g ai/ha; 0 to 100 scale, 0 = no effect, 100 = complete control
Quick one: just the number, no unit, thanks!

For this compound ( O=C1CCCC(O)=C1C(=O)c1cnc(-c2cc(F)cc(F)c2)n(-c2ccccc2)c1=O [Compound 161] ), measured Plant response rating, Morningglory is 40

For this compound ( CCn1c(-c2ccccc2)ncc(C(=O)C2=C(O)C3CCC(C3)C2=O)c1=O (stereo not drawn) [Compound 239] ), measured Plant response rating, Morningglory is 50

For this compound ( O=C1CCCC(O)=C1C(=O)c1cnc(-c2cc(F)cc(F)c2)n(C2CCCCC2)c1=O [Compound 181] ), measured Plant response rating, Morningglory is 30

For this compound ( CCCn1c(-c2cccs2)ncc(C(=O)c2cnn(CC)c2O)c1=O [Compound 221] ), measured Plant response rating, Morningglory is 0

For this compound ( CCCCn1c(-c2cccc(F)c2)ncc(C(=O)C2=C(O)C3CCC(C3)C2=O)c1=O (stereo not drawn) [Compound 237] ), measured Plant response rating, Morningglory is 80

For this compound ( O=C1CCCC(O)=C1C(=O)c1cnc(-c2ccccc2)n(C2CCSCC2)c1=O [Compound 164] ), measured Plant response rating, Morningglory is 50

====

Below, each of the compounds is paired with its reported Plant response rating, Soybean value.
# System: soybean (Glycine max)
# PROTOCOL_DESCRIPTION: Test B pre-/postemergence plant response
# Type: in vivo
# EXPERIMENTAL_CONTEXT: 31 g ai/ha, postemergence; scale 0 to 100, 0 is no effect, 100 is complete control
Quick one: just the number, no unit, thanks!

STRUCTURE_SMILES_STRING: CCCCc1ncc(C(=O)C2=C(O)CCCC2=O)c(=O)n1-c1cccc(C)c1
TARGET_UNDER_TEST: soybean (Glycine max)
MEASURE_NAME: Plant response rating, Soybean
RESULT_NUMBER: 75

For this compound ( `CCCCCn1c(-c2ccccc2)ncc(C(=O)C2=C(O)CCCC2=O)c1=O` ), measured Plant response rating, Soybean is 90

For this compound ( `O=C1CCCC(O)=C1C(=O)c1cnc(-c2ccccc2Br)n(-c2ccccc2)c1=O` ), measured Plant response rating, Soybean is 65

For this compound ( `O=C1CCCC(O)=C1C(=O)c1cnc(-c2cccc(Cl)c2)n(-c2ccc(Cl)cc2)c1=O` ), measured Plant response rating, Soybean is 85

====

Below, each of the compounds is paired with its reported Plant response rating, Foxtail, Giant value.
# Test system: giant foxtail (Setaria faberii)
# PROTOCOL_DESCRIPTION: Test A pre-/postemergence plant response
# Type: in vivo
# EXPERIMENTAL_CONTEXT: Postemergence, 500 g ai/ha; 0 to 100 scale, 0 = no effect, 100 = complete control; approx. ten days
Quick one: just the number, no unit, thanks!

Some solved cases for reference:
COMPOUND: CCCc1ncc(C(=O)C2=C(O)CCCC2=O)c(=O)n1Cc1cccc(OC(F)(F)F)c1 [Compound 105]
RESULT_NUMBER: 20
//
COMPOUND: Cc1ccccc1-c1ncc(C(=O)C2=C(O)CCCC2=O)c(=O)n1-c1ccccc1 [Compound 82]
RESULT_NUMBER: 80
//
COMPOUND: CCn1ncc(C(=O)c2cnc(-c3ccccc3)n(-c3ccccc3)c2=O)c1OS(=O)(=O)c1ccc(C)cc1 [Compound 16]
RESULT_NUMBER: 70

Now for another entry.
For this compound ( Cc1ccc(F)cc1-n1c(-c2ccccc2)ncc(C(=O)C2=C(O)CCCC2=O)c1=O [Compound 44] ), measured Plant response rating, Foxtail, Giant is 90

====

# System: large crabgrass (Digitaria sanguinalis)
# PROTOCOL_DESCRIPTION: Test B pre-/postemergence plant response
# Format: in vivo
# EXPERIMENTAL_CONTEXT: Postemergence, 62 g ai/ha; scale 0 (no effect) to 100 (complete control); 13 to 15 days
Below, each of the molecules is paired with its reported Plant response rating, Crabgrass, Large value.
Quick one: just the number, no unit, thanks!

STRUCTURE_SMILES_STRING: CCCCc1ncc(C(=O)C2=C(O)CCCC2=O)c(=O)n1-c1cccc(C)c1
Plant response rating, Crabgrass, Large: 75
--
STRUCTURE_SMILES_STRING: Cc1c(Cl)cccc1-n1c(-c2ccccc2)ncc(C(=O)C2=C(O)CCCC2=O)c1=O
Plant response rating, Crabgrass, Large: 98
--
STRUCTURE_SMILES_STRING: Cc1cc(-n2c(-c3ccccc3)ncc(C(=O)C3=C(O)CCCC3=O)c2=O)ccc1F
Plant response rating, Crabgrass, Large: 95
--
STRUCTURE_SMILES_STRING: CCCCc1ncc(C(=O)C2=C(O)CCCC2=O)c(=O)n1-c1ccccc1
Plant response rating, Crabgrass, Large: 75

For this molecule ( `O=C1CCCC(O)=C1C(=O)c1cnc(-c2ccccc2)n(-c2cccc(Br)c2)c1=O` ), measured Plant response rating, Crabgrass, Large is 90

====

# Tested on: barnyardgrass (Echinochloa crus-galli)
# PROTOCOL_DESCRIPTION: Test A pre-/postemergence plant response
# Type: in vivo
# EXPERIMENTAL_CONTEXT: Postemergence, 125 g ai/ha; visual injury, 0 to 100 scale (0 no effect, 100 complete control), approx. ten days
MEASURE_NAME: Barnyardgrass plant response rating

Some solved cases for reference:
MOLECULE: O=C1CCCC(O)=C1C(=O)c1cnc(-c2ccccc2)n(-c2ccc(F)cc2F)c1=O [Compound 57]
Barnyardgrass plant response rating: 70
//
MOLECULE: C=CCn1c(-c2ccccc2)ncc(C(=O)C2=C(O)CCCC2=O)c1=O [Compound 23]
Barnyardgrass plant response rating: 10
//
MOLECULE: Cc1ccccc1-n1c(-c2cccc(Cl)c2)ncc(C(=O)C2=C(O)CCCC2=O)c1=O [Compound 36]
Barnyardgrass plant response rating: 90

Now for another entry.
So the reported Barnyardgrass plant response rating for Cn1c(-c2ccccc2)ncc(C(=O)C2=C(O)CCCC2=O)c1=O [Compound 55] , on barnyardgrass (Echinochloa crus-galli), turned out to be 50

====

# System: barnyardgrass (Echinochloa crus-galli)
# PROTOCOL_DESCRIPTION: Test B flooded paddy test
# Type: in vivo
# EXPERIMENTAL_CONTEXT: Flood (flooded paddy test), 62 g ai/ha; scale of 0 to 100 where 0 is no effect and 100 is complete control; 13 to 15 days
MEASURE_NAME: Plant response rating, Barnyardgrass
Quick one: just the number, no unit, thanks!

COMPOUND: CCCc1ncc(C(=O)C2=C(O)CCCC2=O)c(=O)n1-c1ccccc1C
MEASURE_NAME: Plant response rating, Barnyardgrass
RESULT_NUMBER: 0

COMPOUND: COCCn1c(-c2cccc(Cl)c2)ncc(C(=O)C2=C(O)CCCC2=O)c1=O
MEASURE_NAME: Plant response rating, Barnyardgrass
RESULT_NUMBER: 10

COMPOUND: O=C1CCCC(O)=C1C(=O)c1cnc(-c2ccc(F)cc2)n(C2CCCCC2)c1=O
MEASURE_NAME: Plant response rating, Barnyardgrass
RESULT_NUMBER: 0

COMPOUND: O=C(C1=C(O)C2CCC(C2)C1=O)c1cnc(-c2ccccc2)n(C2CCCCC2)c1=O (stereo not shown)
MEASURE_NAME: Plant response rating, Barnyardgrass
RESULT_NUMBER: 0

COMPOUND: Cc1ccc(Cl)cc1-n1c(-c2cccc(Br)c2)ncc(C(=O)C2=C(O)CCCC2=O)c1=O
MEASURE_NAME: Plant response rating, Barnyardgrass
RESULT_NUMBER: 0

COMPOUND: COc1ccc(-n2c(-c3ccccc3)ncc(C(=O)C3=C(O)CCCC3=O)c2=O)cc1OC
MEASURE_NAME: Plant response rating, Barnyardgrass
RESULT_NUMBER: 0

COMPOUND: CCCn1c(-c2ccc(F)cc2)ncc(C(=O)C2=C(O)CCCC2=O)c1=O
MEASURE_NAME: Plant response rating, Barnyardgrass
RESULT_NUMBER: 60

COMPOUND: CCCCc1ncc(C(=O)C2=C(O)CCCC2=O)c(=O)n1-c1ccc(C)cc1
MEASURE_NAME: Plant response rating, Barnyardgrass
RESULT_NUMBER: 0

COMPOUND: O=C1CCCC(O)=C1C(=O)c1cnc(-c2ccccc2)n(CC2CCCO2)c1=O (stereo not shown)
MEASURE_NAME: Plant response rating, Barnyardgrass
RESULT_NUMBER: 0

COMPOUND: CCn1c(-c2ccccc2)ncc(C(=O)C2=C(O)C3CCC(C3)C2=O)c1=O (stereo not shown)
MEASURE_NAME: Plant response rating, Barnyardgrass
RESULT_NUMBER: 0

For this compound ( O=C(C1=C(O)C2CCC(C2)C1=O)c1cnc(-c2cccc(Br)c2)n(C2CCCCC2)c1=O (stereo not shown) ), measured Plant response rating, Barnyardgrass is 0

For this compound ( `CCCc1ncc(C(=O)C2=C(O)CCCC2=O)c(=O)n1Cc1cccc(OC)c1` ), measured Plant response rating, Barnyardgrass is 0
